test: 10-day repeat-dose toxicity and toxicokinetics study in dogs; type: in vivo, Beagle dog; details: male, Beagle, dog, plasma, po; males, 200 mg/kg/day, after 10 days of dosing; read-out: C2E2 AUC0-24
value_kind: AUC(0-t) (µg·h/mL)
Output spec: scalar in µg·h/mL, unitless text.

Task: What value of AUC(0-t) has been reported for the following compound? CCOC(=O)CN(CCN(CCN(CC(=O)O)CC(=O)OCC)CC(=O)O)CC(=O)O
Result: 151

* * *

assay: Precipitation / solubility study in pH 3.0 buffer; type: physicochemical; settings: aqueous buffer, thermodynamic from solid; pH 3.0 buffer, room temperature; read-out: Solubility at pH 3.0
value_kind: solubility

Task: What value of solubility has been reported for the following compound? CCOC(=O)CN(CCN(CCN(CC(=O)O)CC(=O)OCC)CC(=O)O)CC(=O)O
Result: 60 to 70 mg/mL
